Target: T1, human DLL3 (ACRO, DLL3-H52H4) (human, UniProt Q9NYJ7 27-492)
T1 construct: Bought
T1 sequence: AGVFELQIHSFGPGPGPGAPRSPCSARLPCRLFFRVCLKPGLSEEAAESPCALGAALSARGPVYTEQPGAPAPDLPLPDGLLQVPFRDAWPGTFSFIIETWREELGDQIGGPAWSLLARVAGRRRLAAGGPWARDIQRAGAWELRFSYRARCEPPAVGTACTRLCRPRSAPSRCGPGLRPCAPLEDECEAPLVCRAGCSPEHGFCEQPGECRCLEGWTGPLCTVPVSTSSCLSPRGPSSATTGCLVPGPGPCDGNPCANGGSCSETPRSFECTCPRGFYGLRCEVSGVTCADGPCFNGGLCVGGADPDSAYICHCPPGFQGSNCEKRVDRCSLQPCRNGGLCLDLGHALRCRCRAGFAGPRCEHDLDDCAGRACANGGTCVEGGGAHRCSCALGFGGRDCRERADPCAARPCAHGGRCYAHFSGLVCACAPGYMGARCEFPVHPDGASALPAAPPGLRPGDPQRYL
Assay: SPR Biacore 8K, Ab captured on Protein A
From the text: Test antibodies were affinity-captured with a Protein A biosensor chip (Cat. #29127556, Cytiva) for 18 seconds, and then the antigens human DLL3 (ACRO, DLL3-H52H4), cynomolgus monkey DLL3 (KACTUS, DLL-RM103), mouse DLL3 (KACTUS, DLL-MM103), human CD3D&3E (ACRO, CDD-H52W1), and monkey CD3D&3E (ACRO, CDD-C52W4) were allowed to flow through the surface of the chip for 180 seconds, followed by 600 seconds of dissociation. […]
// reported pKd for each item listed
# pKd: negative log10 of molar concentration; output just the value

The following binders have reported results that may help.
hu110L1H4 (antibody, human IgG1, kappa, V domains shown) VH: EVQLVQSGAEVKKPGASVKVSCKTSGYTFTDYYMNWVRQAPGQSLEWMGIINPYSGGTSYTQKFKGRVTITVDKSASTAYMELSSLRSEDTAVYYCARHFYDSSYLTYSTMDYWGQGTTVTVSS VL: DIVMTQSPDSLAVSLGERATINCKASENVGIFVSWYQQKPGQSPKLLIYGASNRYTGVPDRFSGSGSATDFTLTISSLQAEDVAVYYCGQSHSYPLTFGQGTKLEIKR :: 10.04
hu110L2H3 (antibody, human IgG1, kappa, V domains shown) VH: EVQLVQSGAEVKKPGASVKVSCKTSGYTFTDYYMNWVRQAPGQSLEWMGIINPYQGGTSYTQKFKGRVTITVDKSASTAYMELSSLRSEDTAVYYCARHFYDSSYLTYSTMDYWGQGTTVTVSS VL: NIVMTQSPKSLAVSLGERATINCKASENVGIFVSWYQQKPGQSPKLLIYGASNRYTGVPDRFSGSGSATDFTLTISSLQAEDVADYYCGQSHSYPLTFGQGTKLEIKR :: 9.93

Lab note: measured pKd of hu30L1H10 (antibody, human IgG1, kappa, V domains shown) VH: EVRLVQSGAEVKKPGASVKVSCKASGYTFTDYYMNWVRQSHGQSLEWMGIINPYTGDTSYNQKFRGRVTLTVDKSASTAYMELSSLRSEDTAVYYCARYHYGPHLEGYFDVWGQGTTVTVSS VL: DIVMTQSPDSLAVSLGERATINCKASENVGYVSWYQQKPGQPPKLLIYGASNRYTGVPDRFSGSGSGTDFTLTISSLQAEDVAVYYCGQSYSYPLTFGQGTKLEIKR was 8.66

Lab note: measured pKd of hu30L2H3 (antibody, human IgG1, kappa, V domains shown) VH: EVRLVQSGAEVKKPGASVKVSCKASGYTFTDYYMNWVRQAPGQSLEWMGIINPYQGDTSYNQKFRGRVTLTVDKSASTAYMELSSLRSEDTAVYYCARYHYGPHLEGYFDVWGQGTTVTVSS VL: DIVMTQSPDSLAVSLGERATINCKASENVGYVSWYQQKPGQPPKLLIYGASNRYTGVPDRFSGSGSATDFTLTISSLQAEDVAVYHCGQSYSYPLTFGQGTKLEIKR was 8.85
